# Kd per record follows
- tested-on: RSV prefusion F (preF), DS-Cav1 (Respiratory syncytial virus, UniProt P03420 26-513)
- test-details: BLI, IgG on anti-human IgG sensor, 100 nM antigen
Just the number in nM, nothing appended.

binder	Kd (nM)
ADI-36676 (antibody, V domains shown, also called Ab 832; Antibody Number 832) VH: EVQLLESGGGVVQPGRSLRLSCAASGFSFRNYDMHWVRQAPGKGLEWVAIISYDGSNKYADSVKGRFTISRDTSKNTLYLQMNSLRVEDTAVYYCARADSSGYYKGSEYFQHWGQGTLVTVSS VL: SYELTQLPSVSVAPGQTARITCGGNNIGTKSVQWYQHKPGQAPVLVVYDDSDRPSDIPERFSGSNSGNTATLTISRVEAGDEADYYCQVWDSSSDHYVFGTGTKLTVL	0.282

Consider now this further binder.
Exercise: Field request: Kd | item: ADI-41701 (antibody, V domains shown) VH: QVQLVQSGAEVKKPGESLKISCQASGYSFTTYWIGWVRQTPGKGLEWMGIIYPGDSDTRYTPSFQGQVTISADKSISTAYLHWSSLKASDTAMYYCARLSGGYTFGFDYWGLGTLVTVSS VL: NFMLTQPHSVSESPGKTVTISCTRSSGNIARYYVQWYQQRPGRAPTTVIYEDDQRPSGVPDRFSGSIDRSSNSASLTISGLKTEDEADYYCQSYDASNYVFATGTKVTVL
Solution: 1.93
